Reference source for all entries: patent US20050143430A1

Target: Insulin-like Growth Factor 1 Receptor (IGF-1R) (Homo sapiens, UniProt P08069)
Sequence (P08069 31-1367, species assumed): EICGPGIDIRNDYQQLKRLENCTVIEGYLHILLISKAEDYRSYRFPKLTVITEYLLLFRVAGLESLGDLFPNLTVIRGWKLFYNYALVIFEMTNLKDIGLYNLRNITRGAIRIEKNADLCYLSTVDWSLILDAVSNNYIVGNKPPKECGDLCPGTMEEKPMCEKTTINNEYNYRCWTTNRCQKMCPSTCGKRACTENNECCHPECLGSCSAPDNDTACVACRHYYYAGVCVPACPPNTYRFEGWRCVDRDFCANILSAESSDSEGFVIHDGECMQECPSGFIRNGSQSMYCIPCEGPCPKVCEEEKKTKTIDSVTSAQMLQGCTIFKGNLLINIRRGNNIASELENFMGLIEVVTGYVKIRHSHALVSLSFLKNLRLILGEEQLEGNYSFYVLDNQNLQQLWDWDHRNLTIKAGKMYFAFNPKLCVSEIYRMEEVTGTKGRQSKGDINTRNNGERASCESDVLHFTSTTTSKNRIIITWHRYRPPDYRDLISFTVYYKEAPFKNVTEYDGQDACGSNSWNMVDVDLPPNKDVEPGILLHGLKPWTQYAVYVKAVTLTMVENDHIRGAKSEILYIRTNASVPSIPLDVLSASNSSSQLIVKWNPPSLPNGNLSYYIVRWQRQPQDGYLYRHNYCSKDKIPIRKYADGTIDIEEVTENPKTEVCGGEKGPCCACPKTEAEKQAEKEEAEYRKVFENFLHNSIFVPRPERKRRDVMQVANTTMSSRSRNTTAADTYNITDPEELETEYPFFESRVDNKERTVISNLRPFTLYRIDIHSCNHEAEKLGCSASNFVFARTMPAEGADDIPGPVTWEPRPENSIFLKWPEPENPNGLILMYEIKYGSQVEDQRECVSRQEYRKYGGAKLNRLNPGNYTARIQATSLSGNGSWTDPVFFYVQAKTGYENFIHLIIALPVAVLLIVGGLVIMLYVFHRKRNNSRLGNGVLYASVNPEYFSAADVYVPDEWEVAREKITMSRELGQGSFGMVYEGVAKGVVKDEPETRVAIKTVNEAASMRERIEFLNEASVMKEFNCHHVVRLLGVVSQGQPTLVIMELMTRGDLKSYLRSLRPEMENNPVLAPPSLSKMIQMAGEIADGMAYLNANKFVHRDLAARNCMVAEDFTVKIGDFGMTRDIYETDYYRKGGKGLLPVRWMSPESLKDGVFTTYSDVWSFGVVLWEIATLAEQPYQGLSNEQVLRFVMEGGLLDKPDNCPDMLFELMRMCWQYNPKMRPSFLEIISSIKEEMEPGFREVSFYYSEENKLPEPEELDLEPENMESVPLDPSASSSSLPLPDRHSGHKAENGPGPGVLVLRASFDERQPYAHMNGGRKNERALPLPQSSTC
pIC50: −log10 of the molar value.

[
  {
    "compound": "N#CC(=Cc1ccc(O)c(O)c1)C(=O)c1ccc2[nH]c(=O)oc2c1 (single isomer, unassigned) [GB16-11]",
    "pIC50": 6.70
  },
  {
    "compound": "N#C/C(=C\\c1ccc2[nH]c(=O)oc2c1)C(=O)c1ccc2[nH]c(=O)oc2c1",
    "pIC50": 5.38
  },
  {
    "compound": "N#CC(=Cc1ccc(O)c(O)c1)C(=O)c1ccc2[nH]c(=O)oc2c1 (single isomer, unassigned) [GB 16-10]",
    "pIC50": 5.92
  },
  {
    "compound": "N#C/C(=C\\c1ccc(O)c(O)c1)C(=O)c1ccc(O)c(O)c1 [AG 538, reference compound]",
    "pIC50": 7.22
  }
]
